Data origin: paper doi:10.1101/2022.03.12.484055v1

- tested system: ASIC1 (hASIC1; ASIC1a as primary isoform in tsA-201 cells) (Homo sapiens)
- Sequence (P78348 1-528): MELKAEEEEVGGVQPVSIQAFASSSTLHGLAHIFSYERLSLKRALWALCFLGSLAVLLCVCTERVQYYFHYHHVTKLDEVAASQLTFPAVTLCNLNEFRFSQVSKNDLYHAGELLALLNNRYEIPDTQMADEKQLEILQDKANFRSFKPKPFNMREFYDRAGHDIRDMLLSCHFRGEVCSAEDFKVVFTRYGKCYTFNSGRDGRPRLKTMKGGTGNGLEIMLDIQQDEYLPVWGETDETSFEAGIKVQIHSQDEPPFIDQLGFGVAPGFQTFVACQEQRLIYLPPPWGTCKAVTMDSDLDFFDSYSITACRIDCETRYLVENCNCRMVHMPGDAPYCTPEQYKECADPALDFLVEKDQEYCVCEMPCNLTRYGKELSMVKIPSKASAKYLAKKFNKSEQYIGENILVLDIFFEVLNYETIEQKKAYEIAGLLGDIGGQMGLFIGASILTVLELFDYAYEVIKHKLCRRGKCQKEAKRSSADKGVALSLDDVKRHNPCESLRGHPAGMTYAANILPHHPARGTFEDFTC
- assay overview: cell-based
- conditions: tsA201, read-out: % inhibition @ 30 µM
Rule: inhibition at 30 µM under 80% gives false (0), otherwise true (1).

N=C(N)NC(=O)c1ccccc1	false (0)
N=C(N)NC(=O)c1ccccn1	false (0)
N=C(NC(=O)c1nc(Cl)c(N)nc1N)Nc1ccccc1	true (1)

### Prompt Determine whether measured inhibition at 30 µM meets or exceeds 80% for `N=C(N)NC(=O)c1nc(Cl)c(NCc2ccccc2)nc1N`
### Response true (1)

### Prompt // next record `CC(C)c1ccc(C(=O)NC(=N)N)cc1S(C)(=O)=O`
### Response false (0)

### Prompt // next record `N=C(N)NC(=O)c1nc(Cl)c(NCCc2ccccc2)nc1N`
### Response true (1)

### Prompt // next record `N=C(N)NC(=O)c1nc(I)c(N)nc1N`
### Response true (1)

---

- tested system: ASIC1 (hASIC1; ASIC1a as primary isoform in tsA-201 cells) (Homo sapiens)
- assay overview: cell-based
- conditions: tsA201, read-out: % inhibition @ 30 µM
measurement label: inhibition at 30 µM (%)
Give just the number in %; leave the unit off.

Record excerpt, results attached:
COc1ncc(-c2nc(C(=O)NC(=N)N)c(N)nc2N2CCCCCC2)cn1	33
N=C(N)NC(=O)c1nc(-c2ccco2)c(N2CCCCCC2)nc1N	46
N=C(N)NC(=O)c1nc(-c2cc3cc(Cl)ccc3o2)c(N2CCCCCC2)nc1N	35
N=C(N)NC(=O)c1nc(-c2cc3ccccc3o2)c(N2CCCCCC2)nc1N	64

### Prompt Reported inhibition at 30 µM for `N=C(N)NC(=O)c1nc(-c2cc3cnccc3o2)c(N2CCCCCC2)nc1N` : what is it?
### Response 21

### Prompt // next record `N=C(N)NC(=O)c1nc(-c2cc3cc(Br)ccc3o2)c(N)nc1N`
### Response 45

### Prompt // next record `N=C(N)NC(=O)c1nc(-c2cc3cc(F)ccc3o2)c(N2CCCCCC2)nc1N`
### Response 58

### Prompt // next record `COc1ncc(-c2nc(C(=O)NC(=N)N)c(N)nc2N)cn1`
### Response 34

### Prompt // next record `N#Cc1ccc2oc(-c3nc(C(=O)NC(=N)N)c(N)nc3N)cc2c1`
### Response 30

### Prompt // next record `CC(C)(C)c1ccc2oc(-c3nc(C(=O)NC(=N)N)c(N)nc3N3CCCCCC3)cc2c1`
### Response 44

### Prompt // next record `N=C(N)NC(=O)c1nc(-c2cc3cc(Cl)ccc3o2)c(N)nc1N`
### Response 69

---

Listed here: items and their measured inhibition at 30 µM.
- tested system: ASIC1 (hASIC1; ASIC1a as primary isoform in tsA-201 cells) (Homo sapiens)
- assay overview: cell-based
- conditions: tsA201, read-out: % inhibition @ 30 µM
Give just the number in %; leave the unit off.

Nc1nc(N2CCCCCC2)c(-c2cc3ccccc3o2)nc1C(=O)O [compound 68, 68]	6
N=C(N)NC(=O)c1nc(-c2cnc(NCCO)nc2)c(N2CCCCCC2)nc1N [compound 76, 76]	6
COC(=O)c1nc(-c2cc3ccccc3o2)c(N2CCCCCC2)nc1N [compound 67, 67]	9

### Prompt Reported inhibition at 30 µM for CN(C)CCC(=O)c1nc(-c2cc3ccccc3o2)c(N2CCCCCC2)nc1N [compound 72, 72] : what is it?
### Response 31

---

- tested system: ASIC1 (hASIC1; ASIC1a as primary isoform in tsA-201 cells) (Homo sapiens)
- Sequence (P78348 1-528): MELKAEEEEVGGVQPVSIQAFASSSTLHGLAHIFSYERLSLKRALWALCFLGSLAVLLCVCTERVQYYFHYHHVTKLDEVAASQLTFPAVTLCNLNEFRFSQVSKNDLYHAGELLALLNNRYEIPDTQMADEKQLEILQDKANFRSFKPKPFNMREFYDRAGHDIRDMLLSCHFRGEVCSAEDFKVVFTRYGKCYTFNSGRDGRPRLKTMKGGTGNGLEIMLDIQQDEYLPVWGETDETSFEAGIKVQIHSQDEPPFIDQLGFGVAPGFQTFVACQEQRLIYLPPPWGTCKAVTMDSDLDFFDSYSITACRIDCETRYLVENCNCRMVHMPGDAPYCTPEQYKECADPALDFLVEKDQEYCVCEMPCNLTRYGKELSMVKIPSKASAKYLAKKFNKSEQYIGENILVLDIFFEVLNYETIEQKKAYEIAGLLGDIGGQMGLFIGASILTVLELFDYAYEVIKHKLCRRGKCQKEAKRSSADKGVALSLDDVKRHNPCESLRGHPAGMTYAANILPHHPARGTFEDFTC
- assay overview: cell-based
- conditions: tsA201, read-out: % inhibition @ 30 µM
Rule: inhibition at 30 µM under 10% gives N, otherwise Y.

Nc1noc(-c2nc(-c3cc4ccccc4o3)c(N3CCCCCC3)nc2N)n1	N

### Prompt Determine whether measured inhibition at 30 µM meets or exceeds 10% for `N=C(N)NC(=O)c1nc(-c2cnc(N)nc2)c(N2CCCCCC2)nc1N`
### Response N

### Prompt // next record `CNc1ncc(-c2nc(C(=O)NC(=N)N)c(N)nc2N2CCCCCC2)cn1`
### Response Y

### Prompt // next record `Nc1nnc(-c2nc(-c3cc4ccccc4o3)c(N3CCCCCC3)nc2N)[nH]1`
### Response Y

### Prompt // next record `CC(C)Nc1ncc(-c2nc(C(=O)NC(=N)N)c(N)nc2N2CCCCCC2)cn1`
### Response Y

---

Listed here: items and their measured inhibition at 30 µM.
- tested system: ASIC1 (hASIC1; ASIC1a as primary isoform in tsA-201 cells) (Homo sapiens, UniProt P78348)
- Sequence (P78348 1-528): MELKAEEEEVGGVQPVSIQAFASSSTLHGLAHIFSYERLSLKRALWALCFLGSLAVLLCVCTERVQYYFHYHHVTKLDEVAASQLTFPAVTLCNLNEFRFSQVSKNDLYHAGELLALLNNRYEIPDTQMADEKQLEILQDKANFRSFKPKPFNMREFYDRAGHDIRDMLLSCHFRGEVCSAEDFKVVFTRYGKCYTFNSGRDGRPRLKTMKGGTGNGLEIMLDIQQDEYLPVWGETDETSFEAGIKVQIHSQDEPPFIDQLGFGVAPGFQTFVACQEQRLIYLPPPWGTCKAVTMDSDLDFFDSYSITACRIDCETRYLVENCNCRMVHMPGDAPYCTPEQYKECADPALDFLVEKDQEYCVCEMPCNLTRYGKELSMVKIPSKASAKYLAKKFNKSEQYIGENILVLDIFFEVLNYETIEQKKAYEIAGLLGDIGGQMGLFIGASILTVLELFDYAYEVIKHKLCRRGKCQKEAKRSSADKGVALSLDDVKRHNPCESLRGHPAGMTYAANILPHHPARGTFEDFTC
- assay overview: cell-based
- conditions: tsA201, read-out: % inhibition @ 30 µM
Give just the number in %; leave the unit off.

Record excerpt, results attached:
N=C(N)NC(=O)c1nc(-c2cncnc2)c(N2CCCOCC2)nc1N	14
N=C(N)NC(=O)c1nc(Cl)c(N2CCOCC2)nc1N	75
N=C(N)NC(=O)c1nc(-c2ccc(C(F)(F)F)cc2)c(N2CCCC2)nc1N	78
N=C(N)NC(=O)c1nc(-c2cc3ccccc3o2)c(N2CCCOCC2)nc1N	26
N=C(N)NC(=O)c1nc(-c2ccc(C(F)(F)F)cc2)c(C2CC2)nc1N	65

### Prompt Look up inhibition at 30 µM with ASIC1 (hASIC1; ASIC1a as primary isoform in tsA-201 cells) (Homo sapiens, UniProt P78348) for this molecule: `N=C(N)NC(=O)c1nc(Cl)c(N2CCCOCC2)nc1N`
### Response 67

### Prompt // next record `COc1ncc(-c2nc(C(=O)NC(=N)N)c(N)nc2N2CCCOCC2)cn1`
### Response 8
